Test system: NCI-H522 lung
Experiment: NCI-60 one-dose screen, 48 h (100 = growth as untreated, 0 = no growth, -100 = all killed)
Settings: 10 µM unless noted
The panel holds about 83,000 compounds, 20% with a hit somewhere; the sample as a whole holds those more often. Calls of active or inactive are those of the source. How the source made its calls: active means growth percent below 10; inactive means the rest.
# reported growth; entries follow
ENDPOINT_LABEL: growth

1) COC[C@@H]1C[C@@]2(C)[C@@H](CC[C@@H]3[C@@H]2CC[C@@]2(C)[C@H]3CC[C@]2(C)O)CC1=O
73.6% (inactive)
2) COc1ccc(C(=O)c2sc3nc4c(cc3c2N)N2CCC4CC2)cc1OC
82.4% (inactive)
3) CC(C)=CCc1c(O)c(C(=O)CC(C)C)c(O)c2c(-c3ccccc3)cc(=O)oc12
31.5% (inactive)
4) CO[C@H]1CC[C@@]2(C)C(=CC[C@@H]3[C@@H]2CC[C@]2(C)C(=O)C(=O)C[C@@H]32)C1
98% (inactive)
5) CC[C@@H]1[C@@H](C)O[C@@](O)([C@@H](C)[C@H](O)[C@H](C)[C@H]2OC(=O)/C=C/C=C/[C@H](C)[C@@H]([C@@H](C)[C@@H](O)[C@H](C)[C@@]3(O)C[C@@H](O[C@H]4C[C@@H](O)[C@H](O)C(C)O4)[C@H](CC)[C@@H](C)O3)OC(=O)/C=C/C=C/[C@@H]2C)C[C@H]1O[C@@H]1C[C@@H](O)[C@H](O)C(C)O1 (some centres not stated)
-81.8% (active)
6) COc1ccc(/C=C\c2cc(OC)c(OC)c(OC)c2)cc1OCC(=O)Nc1nc2ccc(C(F)(F)F)cc2s1
-39.2% (active)
7) CC12CCC(O)CC1=CCC1C2CCC2(C)C(O)CCC12 (configuration not stated)
94.8% (inactive)
